# system_tested: human GlyT1c transporter (Homo sapiens)
# Construct: expressed in transfected cells; host or cells: CHO cells (recombinant; line hGlyT1c_5_CHO is named for the uptake assay)
# Sequence (P48067 whole entry): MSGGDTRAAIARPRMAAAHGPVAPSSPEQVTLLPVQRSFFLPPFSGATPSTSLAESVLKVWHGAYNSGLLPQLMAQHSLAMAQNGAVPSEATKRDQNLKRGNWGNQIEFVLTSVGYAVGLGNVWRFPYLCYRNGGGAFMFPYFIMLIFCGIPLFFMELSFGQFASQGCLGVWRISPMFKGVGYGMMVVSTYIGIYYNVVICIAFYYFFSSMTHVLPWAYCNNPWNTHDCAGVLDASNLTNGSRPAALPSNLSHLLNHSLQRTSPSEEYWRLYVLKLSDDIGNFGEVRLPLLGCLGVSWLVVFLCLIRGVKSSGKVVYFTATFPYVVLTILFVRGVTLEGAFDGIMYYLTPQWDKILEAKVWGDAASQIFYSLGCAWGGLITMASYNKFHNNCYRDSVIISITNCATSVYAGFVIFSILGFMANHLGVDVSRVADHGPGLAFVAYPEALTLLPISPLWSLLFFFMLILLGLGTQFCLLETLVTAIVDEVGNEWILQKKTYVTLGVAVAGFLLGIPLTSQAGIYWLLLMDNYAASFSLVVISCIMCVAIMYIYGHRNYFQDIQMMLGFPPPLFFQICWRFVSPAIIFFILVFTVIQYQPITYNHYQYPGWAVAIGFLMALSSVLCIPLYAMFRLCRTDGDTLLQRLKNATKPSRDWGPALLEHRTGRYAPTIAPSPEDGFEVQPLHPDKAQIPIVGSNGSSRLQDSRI
# experiment: Radioligand binding assay using recombinant CHO cell membranes expressing human GlyT1
# condition: radioligand binding to human GlyT1c transporter-expressing membranes
property_name: Ki

Cn1cnc(S(=O)(=O)N2C[C@@H](Nc3cc(C(F)(F)F)ncn3)[C@H](c3ncccc3F)C2)c1 (relative stereo) [Example 770] :: ≤ 1000 nM

Test system human GlyT1c transporter (Homo sapiens); read-out Ki; what value for Cc1ccc(S(=O)(=O)N2CC(Nc3ccc(F)c(F)c3)C(c3ccccc3)C2)s1 (centres unmarked) [Example 518] ?
> 10000 nM

Test system human GlyT1c transporter (Homo sapiens); read-out Ki; what value for Cn1cnc(S(=O)(=O)N2C[C@@H](NC(=O)c3cccc(C(F)(F)F)c3)[C@H](c3ccccc3)C2)c1 (relative stereo) [Example 36] ?
≤ 1000 nM

Test system human GlyT1c transporter (Homo sapiens); read-out Ki; what value for Cn1cnc(S(=O)(=O)N2C[C@@H](Nc3ccc(F)cc3F)[C@H](c3ccc(F)cc3)C2)c1 (relative stereo) [Example 165] ?
≤ 1000 nM

Test system human GlyT1c transporter (Homo sapiens); read-out Ki; what value for Cn1cnc(S(=O)(=O)N2C[C@@H](C(=O)Nc3ccc(C(F)(F)F)c(Cl)c3)[C@H](c3ccc(F)cc3)C2)c1 (relative stereo) [Example 276] ?
≤ 1000 nM

Test system human GlyT1c transporter (Homo sapiens); read-out Ki; what value for Cn1cnc(S(=O)(=O)N2C[C@H](OCCNc3ccc(Cl)cc3)[C@@H](c3ccc(F)cc3)C2)c1 [Example 740] ?
≤ 10000 nM

Test system human GlyT1c transporter (Homo sapiens); read-out Ki; what value for Cn1cnc(S(=O)(=O)N2C[C@@H](Nc3cccc(Cl)c3)[C@H](Oc3ccc(F)cc3)C2)c1 (relative stereo) [Example 378] ?
≤ 10000 nM

Test system human GlyT1c transporter (Homo sapiens); read-out Ki; what value for Cn1cnc(S(=O)(=O)N2C[C@H](Nc3cc(OCC4CCNC4)ncn3)[C@@H](c3ccc(F)cc3)C2)c1 (some centres unmarked) [Example 779] ?
≤ 10000 nM

Test system human GlyT1c transporter (Homo sapiens); read-out Ki; what value for Cn1cnc(S(=O)(=O)N2C[C@H](NCCOc3ccc(F)cc3)[C@@H](c3ccc(F)cc3)C2)c1 [Example 667] ?
≤ 100 nM

Test system human GlyT1c transporter (Homo sapiens); read-out Ki; what value for Cn1cnc(S(=O)(=O)N2C[C@H](Nc3cccc(C(F)(F)F)c3)[C@@H](c3ccccc3)C2)c1 [Example 397] ?
≤ 10 nM

Test system human GlyT1c transporter (Homo sapiens); read-out Ki; what value for CCCC(CCN[C@H]1CN(S(=O)(=O)c2cn(C)cn2)C[C@@H]1c1ccccc1)OC (some centres unmarked) [Example 674] ?
≤ 1000 nM

Test system human GlyT1c transporter (Homo sapiens); read-out Ki; what value for Cn1cnc(S(=O)(=O)N2C[C@@H](CNc3cccc(Cl)c3)[C@H](c3ccc(F)cc3)C2)c1 (relative stereo) [Example 333] ?
≤ 1000 nM

Test system human GlyT1c transporter (Homo sapiens); read-out Ki; what value for Cn1cnc(S(=O)(=O)N2C[C@@H](C(=O)c3cccc(Cl)c3)[C@H](c3ccc(F)cc3)C2)c1 (relative stereo) [Example 297] ?
≤ 10 nM

Test system human GlyT1c transporter (Homo sapiens); read-out Ki; what value for Cn1cnc(S(=O)(=O)N2C[C@H](NCc3cc4cc(F)ccc4s3)[C@@H](c3ccccc3)C2)c1 [Example 568] ?
≤ 100 nM
